property label: melting point

Use the examples below as a reference point.
INSERT INTO assay_data (compound, observed) VALUES
  ('COc1ccc(-c2cc(=O)c3cc(N4CCN(C)CC4)ccc3o2)cc1OC [Cpd 21]', '184 to 186 °C'),
  ('CN1CCN(c2ccc3oc(-c4ccccn4)cc(=O)c3c2)CC1 [Cpd 12]', '150 to 152 °C'),
  ('CN1CCCN(c2ccc3oc(-c4cn5ccccc5n4)cc(=O)c3c2)CC1 [Cpd 19]', '188 to 190 °C'),
  ('C[C@H]1CN(c2ccc3oc(-c4nc5ccccc5s4)cc(=O)c3c2)CCN1 [Cpd 36]', '140 to 142 °C'),
  ('O=c1cc(-c2cccc(C(F)(F)F)c2)oc2ccc(N3CCNCC3)cc12 [Cpd 67]', '174 to 176 °C'),
  ('Cc1csc(-c2cc(=O)c3cc(N4CCNCC4)ccc3o2)n1 [Cpd 76]', '179 to 182 °C'),
  ('CC(C)N1CCN(c2ccc3oc(-c4cccnc4)cc(=O)c3c2)CC1 [Cpd 4]', '148 to 150 °C'),
  ('CCN1CCN(c2ccc3oc(-c4ccc(OC)c(OC)c4)cc(=O)c3c2)CC1 [Cpd 22]', '188 to 190 °C');

With those in mind, consider the next compound.
Exercise: Param item = COc1cc(F)c(-c2cc(=O)c3cc(N4CCN[C@@H](C)C4)ccc3o2)cc1OC [Cpd 46] ; retrieve measured melting point.
Solution: 179 to 181 °C

###

Test system: Smn protein
test description: Smn protein assay (Smn HTRF) in cultured cells
Format: cell-based, human
study conditions: Homo sapiens, Fibroblast; GM03813 SMA Type 1 patient fibroblasts, 48 hours, HTRF; concentration producing 1.5 times Smn protein vs DMSO vehicle; read-out: EC1.5x for Smn protein expression
Procedure: Smn Protein Assay in Cultured Cells The Smn HTRF (homogeneous time resolved fluorescence) assay is used to quantify the level of Smn protein in SMA patient fibroblast cells treated with test compounds. Protocol. Cells are thawed and cultured in DMEM-10% FBS for 72 hours. Cells are trypsinized, counted and re-suspended to a concentration of 25,000 cells/mL in DMEM-10% FBS. […] Fluorescence for each well of the plate at 665 nm and 620 nm is measured on an EnVision multilabel plate reader (Perkin-Elmer). […]
This listing pairs molecules with measured EC (1.5-fold).

Consider the following illustrative entries.
INSERT INTO measurements (compound_structure_string, observed) VALUES
  ('COc1ccc(-c2cc(=O)c3cc(N4C[C@@H](C)N[C@@H](C)C4)ccc3o2)cc1OC', '1 to 3 µM'),
  ('C[C@H]1CN(c2ccc3oc(-c4cccc(F)c4)cc(=O)c3c2)CCN1', '0.3 to 1 µM'),
  ('Cc1cn2cc(-c3cc(=O)c4cc(N5CCN[C@@H](C)C5)ccc4o3)nc2cn1', '≤ 0.3 µM');

Exercise: // query EC (1.5-fold) value for entry Cc1csc(-c2cc(=O)c3cc(N4CCNCC4)ccc3o2)n1
Solution: 1 to 3 µM

###

property label: melting point

INSERT INTO measurements (molecule, property_label, observed) VALUES
  ('O=c1cc(-c2cccnc2)oc2ccc(N3CCNCC3)cc12 [Cpd 1]', 'melting point', '177 to 180 °C');

With those in mind, consider the next molecule.
Exercise: Requested read-out: melting point. Entry: COc1ccc(-c2cc(=O)c3cc(N4CCN[C@H](C)C4)ccc3o2)cc1C [Cpd 54]
Solution: 164 to 166 °C
